# ASSAY NOTES: microbe, parasite or virus in culture
# CONDITION INFO: Mycobacterium tuberculosis, 72 h, read-out: pIC50 (converted)
PROPERTY LABEL: log10 of IC50 (log10 of the value in µM)
Hey, these are logged values: log10 of IC50, µM being the unit before logging.

COMPOUND | log10 of IC50
CNCC(O)CN1CCc2ccccc2CC1 (stereo not drawn) | 2.40
C=C/C=c1\c(=C/C)oc2c(NCc3ccccc3)nc(CC)nc12 | 1.34
Cc1cccc(Cl)c1OCCN | 2.50

Looking for the measured log10 of IC50 of Cn1cc(CNC(=O)C2CSc3ccccc3O2)cn1 (stereo not drawn) , can you help? 2.34

May I ask what log10 of IC50 has been recorded for CCCc1nnc(NCc2ccc(C)cn2)o1 ? 2.14

* * *

Measured IC50 by item
# ASSAY NOTES: microbe, parasite or virus in culture
# CONDITION INFO: Mycobacterium tuberculosis, 72 h, read-out: pIC50 (converted)

Could you tell me which IC50 is on file for COC(=O)CNC(=O)c1nc(Br)sc1C(C)C ? > 50.1 µM

Reported IC50, molecule OCCN1CCC2(CCc3cc(-c4ccoc4)ccc32)CC1 : ____ 23.5 µM

Bench note: what IC50 did Cc1cncc(NS(=O)(=O)CCc2ccccc2)c1 show? 314 µM

Requested field: IC50. Item: COc1cc(NC(=O)NCc2nncn2C)ccc1Br 218 µM

Would you mind telling me what IC50 value was observed for CCc1ccc(S(=O)(=O)N2CC[C@@H](N)C2)cc1CC ? > 501 µM

Entry Cc1nc(N2CCCC2)nc2c1CCN(Cc1ccco1)CC2 has what IC50? 4.72 µM

Entry CCNc1ncc(C(=O)N2CCCCC2)s1 has what IC50? 377 µM

* * *

# pIC50 per record follows
# ASSAY NOTES: To identify inhibition of the IFN signalling (Jak-Stat) pathway via expression of an eGFP reporter gene under the control of an IFN-stimulated response element (ISRE) containing MxA promoter.
# Assay type: functional, Homo sapiens

SMILES REPRESENTATION | PROPERTY LABEL | OBSERVED RESULT
COc1cc(CN(C)C(=O)Cc2c(C)nn(C)c2C)ccc1OC(F)F | pIC50 | 5.786 [middle of 4 runs]
Cc1noc(NC(=O)c2ccc(OC(F)(F)F)cc2)n1 | pIC50 | 5.092

Value lookup for pIC50; key = CC(C)n1ccc(-c2cc(C(=O)N3CCCC3)c3ccccn23)n1 < 4.21

* * *

# TARGET: Lysine--tRNA ligase (Plasmodium falciparum (isolate 3D7), UniProt Q8IDJ8)
# Sequence (Q8IDJ8 whole entry): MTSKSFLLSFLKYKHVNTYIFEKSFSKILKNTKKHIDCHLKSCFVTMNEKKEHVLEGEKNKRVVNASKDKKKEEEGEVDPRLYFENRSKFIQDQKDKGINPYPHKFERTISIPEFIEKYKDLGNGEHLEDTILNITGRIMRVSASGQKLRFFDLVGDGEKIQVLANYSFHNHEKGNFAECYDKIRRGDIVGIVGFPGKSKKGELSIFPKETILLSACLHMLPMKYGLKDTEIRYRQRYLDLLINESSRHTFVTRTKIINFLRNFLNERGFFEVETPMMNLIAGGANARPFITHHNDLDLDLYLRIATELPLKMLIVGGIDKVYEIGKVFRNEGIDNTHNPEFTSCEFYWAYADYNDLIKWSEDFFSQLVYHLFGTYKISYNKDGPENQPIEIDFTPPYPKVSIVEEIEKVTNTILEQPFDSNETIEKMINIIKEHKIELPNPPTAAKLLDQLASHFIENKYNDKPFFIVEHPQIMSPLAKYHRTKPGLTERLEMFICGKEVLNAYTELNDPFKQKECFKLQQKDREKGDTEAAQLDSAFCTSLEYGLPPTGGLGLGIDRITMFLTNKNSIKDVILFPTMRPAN
# ASSAY NOTES: Pf-KRS-1 (Lysyl-RNA Synthetase-1, KRS-1, cytosolic KRS) from Plasmodium falciparum. Inhibitor assay, 384 well plate, luminescence read.
pIC50: −log10 of the molar value.
Parameter: pIC50. Scope: all listed entries.

Here are 5 compounds together with their reported answers.
COMPOUND | TARGET | pIC50
Cc1ccc([C@@H]2CN(C(=O)c3cc(C)no3)C[C@H]2NC(=O)C2CC2)cc1 | Lysine--tRNA ligase (Plasmodium falciparum (isolate 3D7), UniProt Q8IDJ8) | < 4.30
Cn1cc(C(C)(O)CNc2ccc(Cl)c(C#N)n2)cn1 (stereo not drawn) | Lysine--tRNA ligase (Plasmodium falciparum (isolate 3D7), UniProt Q8IDJ8) | < 4.30
Cc1nn(C)c(C)c1NC(=O)CN1CCOC(Cn2cccn2)C1 (stereo not drawn) | Lysine--tRNA ligase (Plasmodium falciparum (isolate 3D7), UniProt Q8IDJ8) | < 4.30
Cc1cc(C(N)=O)ccc1NC(=O)c1nc(N2CCCC2)ncc1Cl | Lysine--tRNA ligase (Plasmodium falciparum (isolate 3D7), UniProt Q8IDJ8) | < 4.30
CCCn1cc(NC(=O)c2ccc(S(C)(=O)=O)cc2)ccc1=O | Lysine--tRNA ligase (Plasmodium falciparum (isolate 3D7), UniProt Q8IDJ8) | < 4.30

# ---- query compound ----
May I ask what pIC50 has been recorded for COc1ccc(/C=C/CN2C[C@H]3CC[C@@H]2CN(S(=O)(=O)N(C)C)C3)cc1 ? < 4.30

* * *

# reported log10 IC50; entries follow
# ASSAY NOTES: microbe, parasite or virus in culture
# CONDITION INFO: Mycobacterium tuberculosis, 72 h, read-out: pIC50 (converted)
Units before log transform: µM; reported quantity: IC50; transform: log10.

COMPOUND | log10 IC50
COc1ccc(OC)c(NC(=O)COCC(F)(F)F)c1 | 2.36

Dear colleague, I am looking for the recorded log10 IC50 of the following compound: COC(=O)c1ccc(N2CCC(C(O)c3ccccc3)CC2)nn1 (configuration not stated) 1.39

* * *

# Test system: Mycobacterium tuberculosis
# ASSAY NOTES: Cornell M. t heat shock assay
# Assay type: functional, organism-based
# CONDITION INFO: Mycobacterium tuberculosis
pIC50 by entry:
Just the number, please; pIC50 means minus log10 of the concentration in mol/L.

COMPOUND | TARGET | pIC50
CCC(NC(=O)Nc1ccc(OC)c(C)c1)c1ccncc1 (stereo unspecified) | Mycobacterium tuberculosis | 4.30
CC(C)c1nc(N2CCC(N3CCCCCC3)CC2)c2cnn(C)c2n1 | Mycobacterium tuberculosis | 4.28
O=C(NCCc1cccc(F)c1)C1(n2cnnn2)CCCCC1 | Mycobacterium tuberculosis | 4.95
CCn1nc(C)c(CNC(=O)c2nnc3ccc(Cl)cc3n2)c1C | Mycobacterium tuberculosis | 4.76

We now examine a further compound.
Provide the documented pIC50 with Mycobacterium tuberculosis as the system for Cc1cccc(CN2CCCC2c2cccc(Nc3nccs3)n2)c1 (stereo unspecified) 5.62

* * *

# ASSAY NOTES: microbe, parasite or virus in culture
# CONDITION INFO: Mycobacterium tuberculosis, 72 h, read-out: pIC50 (converted)
// IC50 lookup, one value per entry
Express it in µM; write the number only.

COMPOUND | VALUE UNIT | IC50
CC(N)C(=O)N1CCC(Oc2ccccc2Cl)CC1 (stereo unspecified) | µM | 288
CN(Cc1cccc(OC(F)(F)F)c1)C(=O)c1cnsn1 | µM | 24.3
Fc1ccc(C(NCc2nnc(-c3ccco3)o2)C2CCC2)cc1 (stereo unspecified) | µM | 0.884
Cc1cnn(CCCNCc2csc(COc3ccccc3)n2)c1 | µM | 27.8
NC1CCCN(Cc2ccccc2)C1 (stereo unspecified) | µM | 262

I would be grateful if you could share the reported IC50 for CC(C)Cc1nnc(NCc2ccsc2)o1 . 3.95

Which value of IC50 has been reported for CCOc1nn(CC)cc1-c1nnc(SCc2ccccn2)n1C in the records? 25.4

// query IC50 value for entry CNCC(=O)NC1CCN(Cc2ccc(Br)cc2)CC1 257

* * *

# ASSAY NOTES: microbe, parasite or virus in culture
# CONDITION INFO: Mycobacterium tuberculosis, 96 h, read-out: pIC50 (converted)
PROPERTY LABEL: log10 IC50 (log10 of the value in µM)
Please keep in mind that the values are log10 of IC50 expressed in µM.

COMPOUND | PROPERTY LABEL | OBSERVED RESULT
O=C1CCCN1Cc1nnc(SCc2ccc3c(c2)CCC3)o1 | log10 IC50 | 1.67
COc1cccc(N2CCC(N)CC2)c1 | log10 IC50 | 2.33

For COc1cccc(N2CCC(N)C2)c1 (stereo not drawn) , what is its reported log10 IC50? 2.44

Quick one: log10 IC50 of Fc1cccc(OC2CCN(CCn3cc4ccccc4n3)CC2)c1 ? 1.42

* * *

# ASSAY NOTES: microbe, parasite or virus in culture
# CONDITION INFO: Mycobacterium tuberculosis, 96 h, read-out: pIC50 (converted)
PROPERTY LABEL: IC50 (µM)
Lab book: enter the figure in µM, no units written.

Solved entries (count: 2):
MOLECULE | IC50, µM
c1cc(CNCc2ccc(-n3cncn3)nc2)cc(OC2CCCC2)c1 | 33.9
COCCN1CCC(CNC(=O)N2CCC(C)CC2)C1 (stereo not drawn) | 83.9

GET /values?readout=IC50&item= Cc1cccc(OCC(O)CN)c1 (stereo not drawn) 345

Entry CCC(CC)C(CN)N(C)C (stereo not drawn) : reported IC50 = ? 204

Recorded IC50 for O=C(NCc1cccs1)c1cnsn1 , please? 17.4

Recorded IC50 of CN(CCCN)c1ccccc1F , please. 129

* * *

Recorded IC50 values for a group of molecules are listed next.
# ASSAY NOTES: microbe, parasite or virus in culture
# CONDITION INFO: Mycobacterium tuberculosis, 96 h, read-out: pIC50 (converted)

Study these solved cases before continuing.
MOLECULE | IC50
Cc1ccccc1C(=O)N1CC[C@@H]2CN(c3ncccn3)CCO[C@@H]2C1 | > 50.1 µM
O=C(CNCC1CC1)Nc1ccc(F)cc1 | > 501 µM
c1nsnc1-c1nc(C2CCCO2)no1 (stereo unspecified) | > 501 µM
CN(Cc1ccccc1Br)C(=O)c1nccnc1N | > 501 µM
N#CCCn1ncc2c(NCc3cccs3)ncnc21 | > 501 µM

What does the record list as IC50 for NC1CCN(c2ncccc2F)C1 (stereo unspecified) ? > 501 µM

Give the measured IC50 of Cc1cc(C(=O)N2CCN(Cc3ccsc3)CC2)[nH]n1 . 156 µM

// lookup IC50 for CN(Cc1ccco1)CC(O)COCc1cccs1 (stereo unspecified) 188 µM

Sample CN(C1(C#N)CCC1)S(=O)(=O)c1ccccc1 — what was its IC50? > 501 µM

Form field: reported IC50 of Cc1cc(NC(=O)C(C)C)n(-c2nc(C)c(C)c(=O)[nH]2)n1 9.46 µM
